System: ATP;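 further: ATP exposure 15 min at 22 °C before imaging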
Assay: switch fluorescence ratio, 500 uM ATP over buffer (Cy3 cluster intensity, sum of 5 cycles each) (fold (ratio)); higher = stronger signal-on switching upon ATP binding; sequences stand for … in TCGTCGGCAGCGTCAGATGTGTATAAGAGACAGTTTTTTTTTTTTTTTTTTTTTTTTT…TC
Conditions: aptamer strand: ATP DNA aptamer (quencher-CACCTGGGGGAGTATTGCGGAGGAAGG + anchor), 100 nM annealed; ATP concentration: 500 uM
measurement kind: switch fluorescence ratio
Kindly provide the number alone.

The examples below pair each entry with its known result.
>  <seq text>
TGGGGTTTTT

>  <switch fluorescence ratio>
0.984

$$$$
>  <seq text>
TAGGTTAAGG

>  <switch fluorescence ratio>
1

$$$$
>  <seq text>
CGGGGAGGCG

>  <switch fluorescence ratio>
0.982

$$$$

Okay, next one:
Query: Specify measured switch fluorescence ratio for `GGTTTTTATG` .
Result: 1

---

Entries and their switch fluorescence ratio values follow.
System: ATP;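 further: ATP exposure 15 min at 22 °C before imaging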
Test: switch fluorescence ratio, 500 uM ATP over buffer (Cy3 cluster intensity, sum of 5 cycles each) (fold (ratio)); higher = stronger signal-on switching upon ATP binding; sequences stand for … in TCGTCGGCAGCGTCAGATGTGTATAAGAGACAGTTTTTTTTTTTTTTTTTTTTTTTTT…TC
Conditions: aptamer strand: ATP DNA aptamer (quencher-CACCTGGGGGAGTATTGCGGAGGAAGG + anchor), 100 nM annealed; ATP concentration: 500 uM

Example cases with answers are listed next.
>  <seq text>
AATTATTACT

>  <switch fluorescence ratio>
1.02

$$$$
>  <seq text>
ATTAAGGA

>  <switch fluorescence ratio>
1

$$$$
>  <seq text>
GCTCTTTTGG

>  <switch fluorescence ratio>
0.997

$$$$
>  <seq text>
TCTTTGATTT

>  <switch fluorescence ratio>
1

$$$$
>  <seq text>
CTCTGTGGAC

>  <switch fluorescence ratio>
2.11

$$$$

Query: Identify measured switch fluorescence ratio corresponding to `TAACTTTCTT`
Result: 0.987

Query: Input `TTGGTTCATT` , output reported switch fluorescence ratio.
Result: 1.01

Query: Identify the reported switch fluorescence ratio for the following entry. `GGAGGCTGAG`
Result: 0.993

Query: Quick one: give measured switch fluorescence ratio for `GGCTGAAGTT`
Result: 0.994

Query: Specify reported switch fluorescence ratio for the sequence shown: `ATCGGGAATT`
Result: 1.01

---

switch fluorescence ratio listing for selected sequences.
System: ATP;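 further: ATP exposure 15 min at 22 °C before imaging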
Test: switch fluorescence ratio, 500 uM ATP over buffer (Cy3 cluster intensity, sum of 5 cycles each) (fold (ratio)); higher = stronger signal-on switching upon ATP binding; sequences stand for … in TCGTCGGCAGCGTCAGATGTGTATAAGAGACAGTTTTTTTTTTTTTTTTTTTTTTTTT…TC
Settings: aptamer strand: ATP DNA aptamer (quencher-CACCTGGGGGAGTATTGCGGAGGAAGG + anchor), 100 nM annealed; ATP concentration: 500 uM
Form field (numeric): enter value without unit.

>  <seq text>
TCCGGGTATT

>  <recorded value>
1.08

$$$$
>  <seq text>
TAGGTTACCC

>  <recorded value>
1.04

$$$$
>  <seq text>
CATTTGTTCT

>  <recorded value>
1

$$$$
>  <seq text>
AAGTTTTGGC

>  <recorded value>
1

$$$$
>  <seq text>
AAGGGGAGGC

>  <recorded value>
0.971

$$$$

Now examine the next entry.
Query: State its switch fluorescence ratio for this sequence: `AATTGAAGTG`
Result: 1.02
